Tested on: Fer (mouse);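 further: 11-residue human phosphosite peptides and single-mutation variants displayed on the E. coli surface, counted by deep sequencing, each peptide's frequency after selection divided by its frequency in the unselected input library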;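 further: frequency after pTyr selection over input frequency; kinase dosed for 20-30% of maximal phosphorylation in three min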
Assay: phosphorylation enrichment, bacterial display (enrichment ratio); higher = better substrate or ligand; peptides without Tyr show the background
Where phosphorylation enrichment equals or exceeds 0.5, the correct label is Met; where it does not, the label is Not met.

For orientation, consider the following solved cases.
{"Sequence text": "HHTDECEFDEL [TGM1_Y134_Y134C_YF]", "Experimental target": "Fer (mouse)", "Category label": "Not met"}
{"Sequence text": "VRFMEYETQVK [TARDBP_Y155_T153M]", "Experimental target": "Fer (mouse)", "Category label": "Not met"}
{"Sequence text": "AKYLGYPPPEI [KDR_Y357]", "Experimental target": "Fer (mouse)", "Category label": "Not met"}

Answer whether phosphorylation enrichment of DRLASYLDKVR [KRT10_Y160] is greater than or equal to 0.5.
Not met

Can you check LKEIRYPPYTD [ALDH3B2_Y362_H361R] next?
Met

Can you check FLEKFYKFGSR [NNMT_Y25_YF] next?
Not met

Can you check MTRDIYETDYY [INSR_Y1185] next?
Met

Can you check KNNDGYTDYAE [MCFD2_Y135_I136T] next?
Not met

The reported measurements were obtained from the supplement of paper PMC10065799.
